system: HBsAg; assay: HBsAg, multiplex assay, HBV-infected PHH; assay type: cell-based; settings: Hepatitis B virus, 240 h, read-out: HBsAg IC50 (μM) Median, PHH, patient-derived HBV GT C, MOI 40, day 10 pi
measurement kind: IC50 (µM)
Record the value in µM, omitting the unit from your answer.

response.value for `O=C(NC(CO)CO)c1c[nH]c2ncc(C3CC3)nc12` (field: IC50) = 0.3

----------
For each record, write down the corresponding log10(IC50).
system: HBeAg; experiment: HBeAg, multiplex assay, HBV-infected PHH; format: cell-based; conditions: Hepatitis B virus, read-out: HBeAg IC50 (μM) Median, PHH, patient-derived HBV (GT D)
Field: value | Transform: log10 | Quantity: IC50 | Unit: µM

response.value for `C[C@H](CO)NC(=O)c1c[nH]c2ncc(C3CC3)nc12` (field: log10(IC50)) = 0.47

response.value for `O=C(NC(CO)CO)c1c[nH]c2ncc(C3CC3)nc12` (field: log10(IC50)) = -0.41

response.value for `O=C(NC1(CO)CCCC1)c1c[nH]c2ncc(C3CC3)nc12` (field: log10(IC50)) = -0.17

response.value for CC(C)(O)C(CCO)NC(=O)c1c[nH]c2ncc(C3CC3)nc12 (stereo not drawn) (field: log10(IC50)) = 0.55

response.value for `C[C@@H](CO)NC(=O)c1c[nH]c2ncc(C3CC3)nc12` (field: log10(IC50)) = 0.36

response.value for `CC[C@@H](CO)NC(=O)c1c[nH]c2ncc(C3CC3)nc12` (field: log10(IC50)) = -0.17

response.value for `O=C(NC1(CO)CCOCC1)c1c[nH]c2ncc(C3CC3)nc12` (field: log10(IC50)) = -0.31

response.value for `CC(C)(O)C(C)(C)NC(=O)c1c[nH]c2ncc(C3CC3)nc12` (field: log10(IC50)) = -0.17

response.value for `CC(C)(CO)NC(=O)c1c[nH]c2ncc(C3CC3)nc12` (field: log10(IC50)) = -0.77
